OVCAR ovarian cancer cells measurements of log10 of GI50, listed per entry.
measured_quantity: log10 of GI50 (log10 of the value in nM)

INSERT INTO measurements (chemical_smiles, reading) VALUES
  ('CCOc1cc2c(cc1O)C(=NN)C[C@@H]1[C@@H]2CC[C@]2(C)[C@@H](O)CC[C@@H]12', 3.73),
  ('CCOc1cc2c(cc1O)[C@@H](O)C[C@@H]1[C@@H]2CC[C@]2(C)[C@@H](O)CC[C@@H]12', 2.54),
  ('CCOc1cc2c(cc1O)C(=NNS(=O)(=O)c1ccc(C)cc1)C[C@@H]1[C@@H]2CC[C@]2(C)[C@@H](O)CC[C@@H]12', 3.50),
  ('CC(=O)Oc1cc2c(cc1OCC(F)(F)F)[C@H]1CC[C@]3(C)[C@@H](OC(C)=O)CC[C@H]3[C@@H]1CC2=O', 3.55),
  ('CCOc1cc2c(cc1O)C(=O)C[C@@H]1[C@@H]2CC[C@]2(C)[C@@H](O)CC[C@@H]12', 2.80);

###

- Test system: SN12-C renal cancer cells
Structures can show the parent of a compound that is named as a salt.
measured_quantity: log10 GI50 (log10 of the value in µM)

INSERT INTO assay_data (compound, measured_quantity, reading) VALUES
  ('CCOc1cc2c(cc1OC(C)=O)C(=O)C[C@@H]1[C@@H]2CC[C@]2(C)[C@@H](OC(C)=O)CC[C@@H]12', 'log10 GI50', 1.30),
  ('CCOc1cc2c(cc1O)C(=NOC)C[C@@H]1[C@@H]2CC[C@]2(C)[C@@H](O)CC[C@@H]12', 'log10 GI50', -0.59),
  ('CCOc1cc2c(cc1O)CC[C@@H]1[C@@H]2CC[C@]2(C)C(N)CC[C@@H]12 (stereo partly drawn) [Compound 20, Hydrochloride]', 'log10 GI50', 0.72),
  ('CCOc1cc2c(cc1O)[C@@H](O)C[C@@H]1[C@@H]2CC[C@]2(C)[C@@H](O)CC[C@@H]12', 'log10 GI50', -0.18),
  ('CCOc1cc2c(cc1O)C(=NN)C[C@@H]1[C@@H]2CC[C@]2(C)[C@@H](O)CC[C@@H]12', 'log10 GI50', 1.23),
  ('CC(=O)Oc1cc2c(cc1OCC(F)(F)F)[C@H]1CC[C@]3(C)[C@@H](OC(C)=O)CC[C@H]3[C@@H]1CC2=O', 'log10 GI50', 1.37),
  ('CCOc1cc2c(cc1O)C(=O)C[C@@H]1[C@@H]2CC[C@]2(C)[C@@H](O)CC[C@@H]12', 'log10 GI50', -0.74),
  ('CCOc1cc2c(cc1O)C(=NNS(=O)(=O)c1ccc(C)cc1)C[C@@H]1[C@@H]2CC[C@]2(C)[C@@H](O)CC[C@@H]12', 'log10 GI50', 1.08);

###

Reported GI50 by item:
- Tested on: OVCAR ovarian cancer cells
Counter-ions that a name gives are not always drawn.
measured_quantity: GI50 (nM)

INSERT INTO assay_data (compound, operator, reading) VALUES
  ('CCOc1cc2c(cc1OC(C)=O)C(=O)C[C@@H]1[C@@H]2CC[C@]2(C)[C@@H](OC(C)=O)CC[C@@H]12 [Compound 7]', '=', 23700),
  ('C[C@]12CC[C@@H]3c4cc(OCC(F)(F)F)c(O)cc4C(=NO)C[C@H]3[C@@H]1CC[C@@H]2O [Compound 12]', '<', 10),
  ('CCOc1cc2c(cc1O)CC[C@@H]1[C@@H]2CC[C@]2(C)C(N)CC[C@@H]12 (stereo partly drawn) [Compound 20, Hydrochloride]', '=', 1250);
